Tested on: Cryptococcus neoformans
Experiment: Antifungal activity against Cryptococcus neoformans BLS108 by micro-broth dilution method
Assay type: functional
Each entry below carries its recorded MIC80.

| Molecule | Readout name | Obs value |
| --- | --- | --- |
| COc1cccc(C(=O)Nc2ccc(-n3cnn(CC(O)(Cn4cncn4)c4ccc(F)cc4F)c3=O)cc2)c1 (single isomer, unassigned) | MIC80 | > 64 µg/mL |

Asked: Entry under review: COc1ccc(/C=C/C(=O)Nc2ccc(-n3cnn(CC(O)(Cn4cncn4)c4ccc(F)cc4F)c3=O)cc2)cc1OC (single isomer, unassigned) . Reported MIC80?
Given back: > 64 µg/mL

Asked: # iterate: O=C(/C=C/c1ccccc1F)Nc1ccc(-n2cnn(CC(O)(Cn3cncn3)c3ccc(F)cc3F)c2=O)cc1 (single isomer, unassigned)
Given back: > 64 µg/mL

Asked: And what about the molecule O=C(/C=C/c1ccccc1[N+](=O)[O-])Nc1ccc(-n2cnn(CC(O)(Cn3cncn3)c3ccc(F)cc3F)c2=O)cc1 (single isomer, unassigned) ?
Given back: > 64 µg/mL

Asked: Same lookup for C[C@@H]1[C@H](O)[C@@H](C)/C=C/C=C/C=C/C=C/C=C/C=C/C=C/[C@H](O[C@@H]2O[C@H](C)[C@@H](O)[C@H](N)[C@@H]2O)C[C@@H]2O[C@](O)(C[C@@H](O)C[C@@H](O)[C@H](O)CC[C@@H](O)C[C@@H](O)CC(=O)O[C@H]1C)C[C@H](O)[C@H]2C(=O)O , please.
Given back: 1 µg/mL

====

Tested on: Kluyveromyces marxianus
Experiment: Antifungal activity against Candida kefyr by micro-broth dilution method
Assay type: functional
Measured MIC80, listed per entry.
Report as a plain number; the unit µg/mL is understood.

| Compound | Units label | MIC80 |
| --- | --- | --- |
| C[C@@H]1[C@H](O)[C@@H](C)/C=C/C=C/C=C/C=C/C=C/C=C/C=C/[C@H](O[C@@H]2O[C@H](C)[C@@H](O)[C@H](N)[C@@H]2O)C[C@@H]2O[C@](O)(C[C@@H](O)C[C@@H](O)[C@H](O)CC[C@@H](O)C[C@@H](O)CC(=O)O[C@H]1C)C[C@H](O)[C@H]2C(=O)O [AMPHOTERICIN B] | µg/mL | 0.25 |

Asked: Provide value of MIC80 for this record tested with Kluyveromyces marxianus: COc1ccc(C(=O)Nc2ccc(-n3cnn(CC(O)(Cn4cncn4)c4ccc(F)cc4F)c3=O)cc2)cc1 (single isomer, unassigned)
Given back: 16

====

Test system: Cryptococcus neoformans
Test: Antifungal activity against Cryptococcus neoformans BLS108 by micro-broth dilution method
Type: functional
# MIC80 listing for each entry below
Lab book: enter the figure in µg/mL, no units written.

Example compounds with recorded MIC80:
| Compound | Obs value |
| --- | --- |
| CCC(C)n1ncn(-c2ccc(N3CCN(c4ccc(OCC5COC(Cn6cncn6)(c6ccc(Cl)cc6Cl)O5)cc4)CC3)cc2)c1=O (configuration not stated) | 0.0625 |
| OC(Cn1cncn1)(Cn1cncn1)c1ccc(F)cc1F | 1 |
| O=C(Nc1ccc(-n2cnn(CC(O)(Cn3cncn3)c3ccc(F)cc3F)c2=O)cc1)c1cccc(Cl)c1 (single isomer, unassigned) | 16 |

Asked: # MIC80 lookup, item CC(C)(C)c1ccc(C(=O)Nc2ccc(-n3cnn(CC(O)(Cn4cncn4)c4ccc(F)cc4F)c3=O)cc2)cc1 (single isomer, unassigned)
Given back: 64

Asked: Would you mind doing O=C(/C=C/c1cccc(Br)c1)Nc1ccc(-n2cnn(CC(O)(Cn3cncn3)c3ccc(F)cc3F)c2=O)cc1 (single isomer, unassigned) as well?
Given back: 16

Asked: Quick one: O=C(Nc1ccc(-n2cnn(CC(O)(Cn3cncn3)c3ccc(F)cc3F)c2=O)cc1)c1ccccc1F (single isomer, unassigned)
Given back: 64

Asked: What about Cc1ccc(C(=O)Nc2ccc(-n3cnn(CC(O)(Cn4cncn4)c4ccc(F)cc4F)c3=O)cc2)cc1C (single isomer, unassigned) ?
Given back: 64

Asked: Lookup O=C(Nc1ccc(-n2cnn(CC(O)(Cn3cncn3)c3ccc(F)cc3F)c2=O)cc1)c1ccc(F)cc1 (single isomer, unassigned)
Given back: 64

====

Test system: Kluyveromyces marxianus
Test: Antifungal activity against Candida kefyr by micro-broth dilution method
Assay type: functional
Readout name: MIC80 (µg/mL)
Entry rule: numbers only, all in µg/mL.

Past entries and their recorded results:
| Compound | Units label | MIC80 |
| --- | --- | --- |
| O=C(Nc1ccc(-n2cnn(CC(O)(Cn3cncn3)c3ccc(F)cc3F)c2=O)cc1)c1ccc(Cl)cc1Cl (single isomer, unassigned) | µg/mL | 4 |
| CCC(C)n1ncn(-c2ccc(N3CCN(c4ccc(OCC5COC(Cn6cncn6)(c6ccc(Cl)cc6Cl)O5)cc4)CC3)cc2)c1=O (stereo not given) | µg/mL | 0.0625 |
| OC(Cn1cncn1)(Cn1cncn1)c1ccc(F)cc1F | µg/mL | 4 |
| COc1cccc(C(=O)Nc2ccc(-n3cnn(CC(O)(Cn4cncn4)c4ccc(F)cc4F)c3=O)cc2)c1 (single isomer, unassigned) | µg/mL | 16 |
| Cc1ccc(C(=O)Nc2ccc(-n3cnn(CC(O)(Cn4cncn4)c4ccc(F)cc4F)c3=O)cc2)cc1C (single isomer, unassigned) | µg/mL | 4 |
| O=C(Nc1ccc(-n2cnn(CC(O)(Cn3cncn3)c3ccc(F)cc3F)c2=O)cc1)c1cccc(Br)c1 (single isomer, unassigned) | µg/mL | 64 |

Asked: Field request: MIC80 | item: Cc1ccc(C(=O)Nc2ccc(-n3cnn(CC(O)(Cn4cncn4)c4ccc(F)cc4F)c3=O)cc2)cc1 (single isomer, unassigned)
Given back: 16

====

System: Candida albicans
Assay: Antifungal activity against Candida albicans Y0109 by micro-broth dilution method
Type: functional
Quick reference: MIC80 of the listed items.
Report the figure in µg/mL without appending any unit label.

| Compound | MIC80 [µg/mL] |
| --- | --- |
| O=C(/C=C/c1ccc(Cl)cc1)Nc1ccc(-n2cnn(CC(O)(Cn3cncn3)c3ccc(F)cc3F)c2=O)cc1 (single isomer, unassigned) | 16 |
| Cc1ccccc1C(=O)Nc1ccc(-n2cnn(CC(O)(Cn3cncn3)c3ccc(F)cc3F)c2=O)cc1 (single isomer, unassigned) | 0.0625 |
| O=C(/C=C/c1cccc(Br)c1)Nc1ccc(-n2cnn(CC(O)(Cn3cncn3)c3ccc(F)cc3F)c2=O)cc1 (single isomer, unassigned) | 1 |
| C[C@@H](c1ncncc1F)[C@](O)(Cn1cncn1)c1ccc(F)cc1F | 0.0039 |
| O=C(Nc1ccc(-n2cnn(CC(O)(Cn3cncn3)c3ccc(F)cc3F)c2=O)cc1)c1ccccc1Br (single isomer, unassigned) | 4 |
| CCCCc1ccc(C(=O)Nc2ccc(-n3cnn(CC(O)(Cn4cncn4)c4ccc(F)cc4F)c3=O)cc2)cc1 (single isomer, unassigned) | 0.0156 |
| Cc1ccc(C(=O)Nc2ccc(-n3cnn(CC(O)(Cn4cncn4)c4ccc(F)cc4F)c3=O)cc2)cc1C (single isomer, unassigned) | 0.25 |
| COc1ccc(C(=O)Nc2ccc(-n3cnn(CC(O)(Cn4cncn4)c4ccc(F)cc4F)c3=O)cc2)cc1 (single isomer, unassigned) | 1 |

Asked: Using the record for COc1cccc(C(=O)Nc2ccc(-n3cnn(CC(O)(Cn4cncn4)c4ccc(F)cc4F)c3=O)cc2)c1 (single isomer, unassigned) , report its MIC80.
Given back: 0.0625

====

System: Kluyveromyces marxianus
Test: Antifungal activity against Candida kefyr by micro-broth dilution method
Assay type: functional
Readout name: MIC80 (µg/mL)
Express it in µg/mL; write the number only.

| Molecule | Readout name | Units label | Obs value |
| --- | --- | --- | --- |
| C[C@@H](c1ncncc1F)[C@](O)(Cn1cncn1)c1ccc(F)cc1F | MIC80 | µg/mL | 0.0039 |

Asked: I am curious: what MIC80 value has been reported for Cc1ccc(C(=O)Nc2ccc(-n3cnn(CC(O)(Cn4cncn4)c4ccc(F)cc4F)c3=O)cc2)c(C)c1 (single isomer, unassigned) ?
Given back: 64

====

Test system: Candida albicans
Assay: Antifungal activity against Candida albicans Y0109 by micro-broth dilution method
Assay type: functional
Decide using MIC80 alone. Strictly below 1 µg/mL: met. Equal to or above 1 µg/mL: not met.

Look over these answered cases.
| Molecule | Target of assay | Class assignment |
| --- | --- | --- |
| O=C(Nc1ccc(-n2cnn(CC(O)(Cn3cncn3)c3ccc(F)cc3F)c2=O)cc1)c1cccc(Br)c1 (single isomer, unassigned) | Candida albicans | not met |
| COc1ccc(OC)c(/C=C/C(=O)Nc2ccc(-n3cnn(CC(O)(Cn4cncn4)c4ccc(F)cc4F)c3=O)cc2)c1 (single isomer, unassigned) | Candida albicans | not met |
| C[C@@H]1[C@H](O)[C@@H](C)/C=C/C=C/C=C/C=C/C=C/C=C/C=C/[C@H](O[C@@H]2O[C@H](C)[C@@H](O)[C@H](N)[C@@H]2O)C[C@@H]2O[C@](O)(C[C@@H](O)C[C@@H](O)[C@H](O)CC[C@@H](O)C[C@@H](O)CC(=O)O[C@H]1C)C[C@H](O)[C@H]2C(=O)O | Candida albicans | met |
| Cc1cccc(C(=O)Nc2ccc(-n3cnn(CC(O)(Cn4cncn4)c4ccc(F)cc4F)c3=O)cc2)c1 (single isomer, unassigned) | Candida albicans | met |
| O=C(Nc1ccc(-n2cnn(CC(O)(Cn3cncn3)c3ccc(F)cc3F)c2=O)cc1)c1ccc(Cl)cc1Cl (single isomer, unassigned) | Candida albicans | met |

Asked: Lab note: MIC80 threshold 1 µg/mL. Does this molecule come in strictly under it? Cc1ccc(C(=O)Nc2ccc(-n3cnn(CC(O)(Cn4cncn4)c4ccc(F)cc4F)c3=O)cc2)c(C)c1 (single isomer, unassigned)
Given back: met

Asked: Similarly, CC(C)c1ccc(C(=O)Nc2ccc(-n3cnn(CC(O)(Cn4cncn4)c4ccc(F)cc4F)c3=O)cc2)cc1 (single isomer, unassigned) ?
Given back: not met

Asked: Would you mind doing CCC(C)n1ncn(-c2ccc(N3CCN(c4ccc(OCC5COC(Cn6cncn6)(c6ccc(Cl)cc6Cl)O5)cc4)CC3)cc2)c1=O (configuration not stated) as well?
Given back: met

Asked: Same for CCCCCc1ccc(C(=O)Nc2ccc(-n3cnn(CC(O)(Cn4cncn4)c4ccc(F)cc4F)c3=O)cc2)cc1 (single isomer, unassigned)
Given back: not met
